- study_system: T1, Helicobacter pylori Hsp60 with a 6 × His tag on its C terminus (Helicobacter pylori 26695, UniProt P42383 1-546)
- T1 construct: also called recombinant Hsp60; source: E. coli BL21(DE3), purified (Ni-NTA, Sephadex G-75 gel filtration); not shown: His6, C-terminal, kept
- T1 sequence (P42383 whole entry): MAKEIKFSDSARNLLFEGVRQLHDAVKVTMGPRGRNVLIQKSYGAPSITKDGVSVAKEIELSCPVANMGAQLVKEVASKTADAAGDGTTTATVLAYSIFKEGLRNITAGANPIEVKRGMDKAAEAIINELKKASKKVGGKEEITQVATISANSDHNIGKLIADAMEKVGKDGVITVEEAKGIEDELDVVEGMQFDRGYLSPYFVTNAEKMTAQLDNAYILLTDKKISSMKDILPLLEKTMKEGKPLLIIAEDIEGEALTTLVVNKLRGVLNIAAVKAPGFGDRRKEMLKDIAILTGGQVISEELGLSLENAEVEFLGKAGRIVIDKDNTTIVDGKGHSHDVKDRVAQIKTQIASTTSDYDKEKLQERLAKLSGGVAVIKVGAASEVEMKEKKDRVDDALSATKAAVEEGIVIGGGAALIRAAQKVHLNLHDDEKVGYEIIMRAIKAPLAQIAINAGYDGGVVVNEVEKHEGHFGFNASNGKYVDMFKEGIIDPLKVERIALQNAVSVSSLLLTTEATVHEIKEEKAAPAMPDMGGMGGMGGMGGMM
- method_notes: SPR; BIAcore T100; Hsp60 immobilized on CM5 chip (~600 RU); UreA-His or mutants as analytes (0.36-2.19 μM); PBS pH 7.4, 30 μl/min, 25°C; kinetic analysis, global fit to 1:1 Langmuir model
- condition_summary: both partners purified
For each record, write down the corresponding koff.
One number for each entry, in s⁻¹.

Sample answers from the record:
binder	quantity_unit	koff
UreA-His Y15A (natural protein, source: E. coli BL21(DE3), purified as wild-type UreA-His; not shown: His tag, C-terminal, kept) MKLTPKELDKLMLHAAGELAKKRKEKGIKLNYVEAVALISAHIMEEARAGKKTAAELMQEGRTLLKPDDVMDGVASMIHEVGIEAMFPDGTKLVTVHTPIEANGKLVPGELFLKNEDITINEGKKAVSVKVKNVGDRPVQIGSHFHFFEVNRCLDFDREKTFGKRLDIASGTAVRFEPGEEKSVELIDIGGNRRIFGFNALVDRQADNESKKIALHRAKERGFHGAKSDDNYVKTIKE	s⁻¹	0.00164
UreA-His R23A (natural protein, source: E. coli BL21(DE3), purified as wild-type UreA-His; not shown: His tag, C-terminal, kept) MKLTPKELDKLMLHYAGELAKKAKEKGIKLNYVEAVALISAHIMEEARAGKKTAAELMQEGRTLLKPDDVMDGVASMIHEVGIEAMFPDGTKLVTVHTPIEANGKLVPGELFLKNEDITINEGKKAVSVKVKNVGDRPVQIGSHFHFFEVNRCLDFDREKTFGKRLDIASGTAVRFEPGEEKSVELIDIGGNRRIFGFNALVDRQADNESKKIALHRAKERGFHGAKSDDNYVKTIKE	s⁻¹	0.00144

I would be grateful if you could provide koff for each of the following entries.
1. UreA-His K66A (natural protein, source: E. coli BL21(DE3), purified as wild-type UreA-His; not shown: His tag, C-terminal, kept) MKLTPKELDKLMLHYAGELAKKRKEKGIKLNYVEAVALISAHIMEEARAGKKTAAELMQEGRTLLAPDDVMDGVASMIHEVGIEAMFPDGTKLVTVHTPIEANGKLVPGELFLKNEDITINEGKKAVSVKVKNVGDRPVQIGSHFHFFEVNRCLDFDREKTFGKRLDIASGTAVRFEPGEEKSVELIDIGGNRRIFGFNALVDRQADNESKKIALHRAKERGFHGAKSDDNYVKTIKE
2. UreA-His D68A (natural protein, source: E. coli BL21(DE3), purified as wild-type UreA-His; not shown: His tag, C-terminal, kept) MKLTPKELDKLMLHYAGELAKKRKEKGIKLNYVEAVALISAHIMEEARAGKKTAAELMQEGRTLLKPADVMDGVASMIHEVGIEAMFPDGTKLVTVHTPIEANGKLVPGELFLKNEDITINEGKKAVSVKVKNVGDRPVQIGSHFHFFEVNRCLDFDREKTFGKRLDIASGTAVRFEPGEEKSVELIDIGGNRRIFGFNALVDRQADNESKKIALHRAKERGFHGAKSDDNYVKTIKE
3. UreA-His (urease α subunit fused with a His tag on its C-terminus) (natural protein, also called wild-type UreA-His; urease subunit α; source: E. coli BL21(DE3), purified (Ni-NTA); not shown: His tag, C-terminal, kept) MKLTPKELDKLMLHYAGELAKKRKEKGIKLNYVEAVALISAHIMEEARAGKKTAAELMQEGRTLLKPDDVMDGVASMIHEVGIEAMFPDGTKLVTVHTPIEANGKLVPGELFLKNEDITINEGKKAVSVKVKNVGDRPVQIGSHFHFFEVNRCLDFDREKTFGKRLDIASGTAVRFEPGEEKSVELIDIGGNRRIFGFNALVDRQADNESKKIALHRAKERGFHGAKSDDNYVKTIKE

1: 0.00115; 2: 0.00227; 3: 0.000126

Reference source: paper PMC6370633
